Provenance of the data: PubChem BioAssay (EPA / NIEHS)

experiment: ATG_PBREM_CIS: Attagene CIS-FACTORIAL HepG2 Assay for human Phenobarbital-responsive Enhancer Module (PBREM) (AID 2282955); conditions: HepG2 PBREM cis-reporter, Attagene multiplexed transcription; actives raise or lower the signal
Activity calls are given as the source filed them. Rule for the calls: active = hit-call score of the fitted dose curve at least 0.9, where 1 is the maximum; inactive = score below 0.9.
experimental_endpoint: AC50

A selection of reference data follows.
1. CCNc1nc(Cl)nc(NC(C)(C)C#N)n1
inactive
2. COc1cccc(C(=O)NN(C(=O)c2cc(C)cc(C)c2)C(C)(C)C)c1C
3.46 µM (active)
3. CNC(=O)ON=C(SC)C(=O)N(C)C
inactive
4. CCCSP(=O)(OCC)SCCC
inactive
5. CCOP(=S)(OCC)Oc1ccc([N+](=O)[O-])cc1
inactive

Shift focus to the following entry.
Provide only the value of recorded AC50 for CCC(CC)Nc1c([N+](=O)[O-])cc(C)c(C)c1[N+](=O)[O-]
inactive

###

read-out: Cytochrome P450 3A7 (Homo sapiens) (UniProt P24462); assay: LTEA_HepaRG_CYP3A7: Life Technologies and Expression Analysis (LTEA) Assay for CYP3A7 using HepaRG (AID 2283492); details: mRNA level, 48 h; actives raise or lower the signal
Sequence (P24462 whole entry, looked up): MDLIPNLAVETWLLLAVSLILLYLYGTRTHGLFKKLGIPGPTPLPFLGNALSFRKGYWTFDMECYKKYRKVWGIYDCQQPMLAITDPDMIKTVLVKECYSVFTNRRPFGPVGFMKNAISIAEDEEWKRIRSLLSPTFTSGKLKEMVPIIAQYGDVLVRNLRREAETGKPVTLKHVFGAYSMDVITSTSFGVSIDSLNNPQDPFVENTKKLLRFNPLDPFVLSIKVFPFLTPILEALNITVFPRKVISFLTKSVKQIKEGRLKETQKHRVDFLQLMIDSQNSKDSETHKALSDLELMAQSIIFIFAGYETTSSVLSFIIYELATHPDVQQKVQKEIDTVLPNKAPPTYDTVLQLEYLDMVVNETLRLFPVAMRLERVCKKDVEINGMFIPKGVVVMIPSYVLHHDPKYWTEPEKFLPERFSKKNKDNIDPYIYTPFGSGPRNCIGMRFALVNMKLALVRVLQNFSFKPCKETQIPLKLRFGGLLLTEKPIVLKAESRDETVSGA
Active and inactive are the calls of the source. Rule for the calls: active = hit-call score of the fitted dose curve at least 0.9, where 1 is the maximum; inactive = score below 0.9.
Entry note: the call must match one of T (active), F (inactive)

1) CCCOCC(=Nc1ccc(Cl)cc1C(F)(F)F)n1ccnc1
T

Could you please tell me the result logged for CC1(C(=O)Nc2ccc(O)c(Cl)c2Cl)CCCCC1 in this assay?
F

Answer briefly: the call reported for CCOP(=S)(OCC)OC(Cl)C(Cl)(Cl)Cl (configuration not stated) in this assay.
F

How was CCOC(=O)CC(SP(=O)(OC)OC)C(=O)OCC (configuration not stated) classified in this test?
F

Assay result, entry CNC(=O)Oc1cccc2c1OC(C)(C)O2 — outcome?
F

Which outcome was entered for the compound CCc1cccc(C)c1N(C(=O)CCl)C(C)COC (configuration not stated) in this test?
F

What call does the record list for CC(C)N(C(=O)SCC(Cl)=C(Cl)Cl)C(C)C ?
F

I'd appreciate the recorded outcome for C[N+]1(C)CCCCC1 from this test.
F

Would you mind telling me which call this test gave C#CCC1=C(C)C(OC(=O)C2C(C=C(C)C)C2(C)C)CC1=O (configuration not stated) ?
F

Short answer needed: outcome of this test for COP(=O)(OC)SCn1c(=O)oc2cc(Cl)cnc21 ?
T

Assay result, entry CCCOc1nn(C(=O)NS(=O)(=O)c2ccccc2C(=O)OC)c(=O)n1C — outcome?
F

Record request — test call for CC(C)=CC1C(C(=O)OCN2C(=O)C3=C(CCCC3)C2=O)C1(C)C (configuration not stated)
F

Kindly provide the recorded test outcome for the following compound: CC(C)[C@H](C(=O)O[C@H](C#N)c1cccc(Oc2ccccc2)c1)c1ccc(Cl)cc1
F

Short answer needed: outcome of this test for CCOP(=O)(NC(C)C)Oc1ccc(SC)c(C)c1 (configuration not stated) ?
F

For CNc1cnn(-c2cccc(C(F)(F)F)c2)c(=O)c1Cl , which call appears in the assay record?
F

Entry CSc1nnc(C(C)(C)C)c(=O)n1N : call = ?
F

What did the test return for CCC(=O)Nc1ccc(Cl)c(Cl)c1 ?
F

State the result this test recorded for Nc1nc(N)nc(NC2CC2)n1 .
F

Check the results log: what was the call for CN1COCN(Cc2cnc(Cl)s2)C1=N[N+](=O)[O-] ?
F

Outcome logged for CCOP(=S)(OCC)Oc1cc(C)nc(C(C)C)n1 in this assay:
F

Please indicate how the test categorized C[Si](Cn1cncn1)(c1ccc(F)cc1)c1ccc(F)cc1 .
T
